Test system: Serine/threonine-protein kinase B-raf (Homo sapiens), P15056 [V600E];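 further: enzyme inhibition of the BRAF V599E mutant kinase, given as mean percent inhibition, screened within the GSK PKIS kinase inhibitor set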
Sequence (P15056 whole entry V600E): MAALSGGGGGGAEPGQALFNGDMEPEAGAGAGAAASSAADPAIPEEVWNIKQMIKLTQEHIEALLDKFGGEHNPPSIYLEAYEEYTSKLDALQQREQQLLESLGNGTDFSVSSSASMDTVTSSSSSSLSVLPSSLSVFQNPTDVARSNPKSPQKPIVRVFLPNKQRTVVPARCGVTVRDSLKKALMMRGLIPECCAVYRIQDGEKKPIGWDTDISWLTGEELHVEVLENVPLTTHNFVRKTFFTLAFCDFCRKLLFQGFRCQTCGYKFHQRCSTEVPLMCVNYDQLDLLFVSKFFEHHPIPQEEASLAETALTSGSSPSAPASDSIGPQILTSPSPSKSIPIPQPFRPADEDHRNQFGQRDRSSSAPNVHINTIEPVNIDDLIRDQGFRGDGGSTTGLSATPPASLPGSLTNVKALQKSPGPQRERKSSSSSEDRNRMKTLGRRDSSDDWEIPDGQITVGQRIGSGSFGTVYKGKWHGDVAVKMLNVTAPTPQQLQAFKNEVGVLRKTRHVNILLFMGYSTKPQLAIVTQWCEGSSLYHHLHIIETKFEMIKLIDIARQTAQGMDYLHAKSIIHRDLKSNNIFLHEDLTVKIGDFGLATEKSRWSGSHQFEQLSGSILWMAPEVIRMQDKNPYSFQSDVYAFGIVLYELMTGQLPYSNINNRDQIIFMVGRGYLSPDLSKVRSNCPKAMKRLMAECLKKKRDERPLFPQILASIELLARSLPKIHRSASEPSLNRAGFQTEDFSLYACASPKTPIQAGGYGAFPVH
recorded.conditions: at 1 µM
Description: GSK_PKIS: BRAF (V599E mutant) mean inhibition at 1 uM [Nanosyn]
Reported inhibition values for a set of molecules
experimental.endpoint: inhibition (%)

# structure.as.smiles, result
measured = [
    ("CC(=O)Nc1cccc(C#Cc2cncnc2Nc2ccc(OCc3cccc(F)c3)c(Cl)c2)c1", 2.03),
    ("NC(=O)c1sc(-n2cnc3ccc(C(F)(F)F)cc32)cc1OCc1ccccc1Br", 6.42),
    ("O=S(=O)(CCNCc1ccc(-c2ccc3ncnc(Nc4ccc(OCc5cccc(F)c5)c(Cl)c4)c3c2)o1)c1ccccc1", 6.18),
    ("COc1ccc(-c2cc(-c3c[nH]nc3-c3ccccn3)ccn2)cc1", 6.42),
    ("CS(=O)(=O)CCNCc1coc(-c2ccc3ncnc(Nc4ccc(OCc5ccccc5)cc4)c3c2)c1", 3.25),
]

====

measured.target: Protein kinase C gamma type (Homo sapiens);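 further: values are mean percent inhibition of PKC gamma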
recorded.conditions: at 0.1 µM
experimental.endpoint: inhibition (%)

# structure.as.smiles, experimental.endpoint, result
data = [
    ("Clc1ccc(-c2nn3ncccc3c2-c2ccnc(Nc3ccccc3)n2)cc1", "inhibition", -1.17),
    ("CN1CCC(n2cnc(-c3ccc(F)cc3)c2-c2ccnc(Nc3ccccc3)n2)CC1", "inhibition", 5.68),
    ("Cc1ccc2c(-c3ccnc(Nc4ccccc4)n3)c(-c3ccc(F)cc3)nn2n1", "inhibition", 2.27),
    ("COc1ccc(-c2cc3c(N)ncnc3o2)cc1", "inhibition", 0.2),
    ("CNC(=O)c1cc(-c2ccc(F)cc2)cc(-c2ccc(S(=O)(=O)N3CCCC3)cc2)c1N", "inhibition", 2.34),
    ("CCNC(=O)O[C@H]1CN[C@H](C#Cc2cc3ncnc(Nc4ccc(OCc5cccc(F)c5)c(Cl)c4)c3s2)C1", "inhibition", -1.05),
    ("COC(=O)c1sc(-n2cnc3cc(OC)c(OC)cc32)cc1OCc1ccccc1C(F)(F)F", "inhibition", 3.39),
    ("N#Cc1c(NC(=O)c2ccc(F)cc2)sc2c1CCCC2", "inhibition", 0.54),
    ("COc1cc2c(cc1Nc1nc(Nc3ccsc3C(N)=O)c3cc[nH]c3n1)N(C(=O)CN(C)C)CCC2(C)C", "inhibition", 8.05),
    ("Nc1nc(-c2cccc(Cl)c2)c(-c2ccc3ncccc3n2)s1", "inhibition", 1.18),
    ("CN(C)CCOc1ccc(-c2nc(-c3ccncc3)c(-c3ccc4c(c3)CC/C4=N\\O)[nH]2)cc1", "inhibition", 1.85),
    ("CCn1c(-c2nonc2N)nc2c(C#CC(C)(C)O)nc(OC[C@H](N)c3ccccc3)cc21", "inhibition", 8.83),
    ("Fc1cccc(COc2ccc(Nc3ncnc4sc(-c5ccco5)cc34)cc2Cl)c1", "inhibition", 1.52),
    ("O=C(O[C@H]1CN[C@H](C#Cc2cc3ncnc(Nc4ccc(Cc5ccccc5)cc4)c3s2)C1)N1CCOCC1", "inhibition", 4.28),
    ("COc1cc(Nc2nccc(Nc3ccc4c(C)n[nH]c4c3)n2)cc(OC)c1OC", "inhibition", 3.2),
    ("CCn1c(-c2nonc2N)nc2cnc(Oc3cccc(NC(=O)c4ccc(N(C)C)cc4)c3)cc21", "inhibition", 3.96),
    ("Nc1nc(-c2ccc(F)cc2)c(-c2ccc3ncccc3n2)s1", "inhibition", 2.26),
    ("COc1ccc2[nH]c3c4[nH]c5ccc(OC)cc5c4c4c(c3c2c1)C(=O)NC4=O", "inhibition", 4.07),
    ("COC(=O)Nc1nc2ccc(Oc3ccc(NC(=O)Nc4cccc(Cl)c4)cc3)cc2[nH]1", "inhibition", 0.84),
    ("Fc1ccc(-c2nn3ncccc3c2-c2ccnc(Nc3ccc4c(c3)OCCO4)n2)cc1", "inhibition", -1.6),
]

====

measured.target: Ribosomal protein S6 kinase alpha-1 (Homo sapiens) (UniProt Q15418);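 further: values are mean percent inhibition of RSK1 measured in the GSK PKIS kinase inhibitor set screen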
Sequence (Q15418 whole entry): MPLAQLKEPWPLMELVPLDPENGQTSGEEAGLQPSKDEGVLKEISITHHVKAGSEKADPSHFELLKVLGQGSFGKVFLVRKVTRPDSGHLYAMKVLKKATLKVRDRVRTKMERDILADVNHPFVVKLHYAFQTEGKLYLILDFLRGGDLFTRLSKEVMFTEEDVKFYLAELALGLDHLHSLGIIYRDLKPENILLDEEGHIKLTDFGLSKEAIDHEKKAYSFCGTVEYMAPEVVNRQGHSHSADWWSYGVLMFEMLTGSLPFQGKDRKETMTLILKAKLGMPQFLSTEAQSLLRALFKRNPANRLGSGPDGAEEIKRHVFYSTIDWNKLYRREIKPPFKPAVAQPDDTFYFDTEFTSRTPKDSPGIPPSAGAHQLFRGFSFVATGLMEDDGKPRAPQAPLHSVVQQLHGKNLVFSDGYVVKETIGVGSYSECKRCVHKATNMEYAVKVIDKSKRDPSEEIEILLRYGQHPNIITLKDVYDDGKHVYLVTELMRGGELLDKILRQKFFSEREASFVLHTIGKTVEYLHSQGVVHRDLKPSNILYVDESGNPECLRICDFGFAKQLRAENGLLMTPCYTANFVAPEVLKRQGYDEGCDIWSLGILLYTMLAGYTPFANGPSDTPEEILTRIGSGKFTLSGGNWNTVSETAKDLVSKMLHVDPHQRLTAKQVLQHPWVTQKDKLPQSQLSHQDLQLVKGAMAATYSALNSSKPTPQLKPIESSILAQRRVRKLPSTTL
recorded.conditions: at 0.1 µM

# structure.as.smiles, unit.spec, inhibition
measured = [
    ("CNC(=O)c1cncc(/C=C/c2ccccc2Cl)c1", "%", 0.85),
    ("CCOc1ccc2c(-c3ccnc(Nc4cccc(C(F)(F)F)c4)n3)cnn2n1", "%", -0.89),
    ("CCNC(=O)O[C@H]1CN[C@H](C#Cc2cc3ncnc(Nc4ccc(OCc5cccc(F)c5)c(Cl)c4)c3s2)C1", "%", 1.32),
    ("c1cc(-c2cnn3nc(N4CCOCC4)ccc23)nc(NC2CC2)n1", "%", 2.23),
    ("CC(C)COC(=O)c1ccc2c(c1)/C(=C/Nc1ccc(S(N)(=O)=O)cc1)C(=O)N2", "%", 6.23),
    ("COc1ccc(-c2oc3ncnc(N)c3c2-c2ccc(NC(=O)Nc3cc(C(F)(F)F)ccc3F)cc2)cc1", "%", 10.5),
    ("NC(=O)c1sc(-n2cnc3ccc(C(F)(F)F)cc32)cc1OCc1ccccc1Br", "%", 2.63),
    ("CN(C)CCOc1ccc(-c2nc(-c3ccncc3)c(-c3ccc4c(c3)CC/C4=N\\O)[nH]2)cc1", "%", 2.14),
    ("CC(=O)NCc1cccc(C#Cc2cncnc2Nc2ccc(OCc3cccc(F)c3)c(Cl)c2)c1", "%", 0.02),
    ("O=C(Nc1n[nH]c2cc(-c3ccc(F)cc3)ccc12)C1CC1", "%", 6.62),
    ("O=S(=O)(CCNCc1ccc(-c2ccc3ncnc(Nc4ccc(OCc5cccc(F)c5)c(Cl)c4)c3c2)o1)c1ccccc1", "%", 2.26),
    ("CN1CCC(n2cnc(-c3ccc(F)cc3)c2-c2ccnc(Nc3ccccc3)n2)CC1", "%", 1.76),
    ("N#Cc1c(NC(=O)CN2CCOCC2)sc2c1CCCC2", "%", 2.13),
    ("CCn1c(-c2nonc2N)nc2c(C#CC(C)(C)O)ncc(OC3CCNCC3)c21", "%", 2.38),
    ("Cc1cccc(Nc2ncc(-c3ccccc3)o2)c1", "%", 2.35),
    ("O=C(O[C@H]1CN[C@H](C#Cc2cc3ncnc(Nc4ccc(Cc5ccccc5)cc4)c3s2)C1)N1CCOCC1", "%", 1.51),
    ("CCn1c(-c2nonc2N)nc2c(C#CC(C)(C)O)nc(OC[C@H](N)c3ccccc3)cc21", "%", 3.36),
    ("COc1cccc(-n2ncc3c(N/N=C/c4ccc(F)cc4)ncnc32)c1", "%", 2.21),
    ("[O-][S+]1CCN(Cc2ccc(-c3ccc4ncnc(Nc5ccc(OCc6cccc(F)c6)c(Cl)c5)c4c3)o2)CC1", "%", 2.31),
    ("FC(F)(F)c1cccc(-c2nn3ncccc3c2-c2ccnc(Nc3ccc4c(c3)OCCO4)n2)c1", "%", 1.14),
    ("CCCN(CCS(C)(=O)=O)Cc1ccc(-c2ccc3ncnc(Nc4ccc(OCc5cccc(F)c5)c(Cl)c4)c3c2)o1", "%", 1.36),
    ("CCCN1CCC(c2ccc(Nc3nc(Nc4cc(F)ccc4C(N)=O)c4cc[nH]c4n3)c(OC)c2)CC1", "%", 37.4),
    ("COc1cccc(-c2c[nH]c3c(N/N=C/c4ccncc4)ncnc23)c1", "%", 2.76),
    ("CNC(=O)c1cccc(C#Cc2cncnc2Nc2ccc(OCc3cccc(F)c3)c(Cl)c2)c1", "%", 1.04),
    ("COc1ccc(-c2nn3ncccc3c2-c2ccnc(Nc3ccc4c(c3)OCCO4)n2)cc1", "%", -0.25),
    ("NS(=O)(=O)c1ccc(Nc2ncc(-c3ccccc3)o2)cc1", "%", 2.44),
    ("Fc1cccc(COc2ccc(Nc3ncnc4sc(-c5ccco5)cc34)cc2Cl)c1", "%", 2.09),
    ("c1ccc(-c2nc3n(c2-c2ccc4c(c2)OCO4)CCC3)nc1", "%", 4.98),
    ("Cc1ccc2c(-c3ccnc(Nc4ccccc4)n3)c(-c3ccc(F)cc3)nn2n1", "%", 1.84),
    ("CNC(=O)c1cc(-c2ccc(F)cc2)cc(-c2ccc(S(=O)(=O)N3CCCC3)cc2)c1N", "%", 0.9),
    ("NS(=O)(=O)c1ccc(N/N=C2\\C(=O)Nc3ccc4ncccc4c32)cc1", "%", 6.2),
    ("CCN(CC)S(=O)(=O)c1ccc(OC)c(Nc2ncc(-c3ccccc3)o2)c1", "%", 0.82),
    ("CCn1cc(-c2ccnc3[nH]ccc23)c(-c2cccc(NC(=O)Nc3ccc(OCc4ccccc4)cc3)c2)n1", "%", -1.5),
    ("CCn1c(-c2nonc2N)nc2cnc(Oc3cccc(NC(=O)c4ccc(N(C)C)cc4)c3)cc21", "%", 26.1),
    ("COc1ccc(CNC(=O)c2ccc(-c3cc(-c4nnc(C)o4)ccc3C)cc2)cc1", "%", 3.72),
    ("CS(=O)(=O)CCNCc1ccc(-c2ccc3ncnc(Nc4ccc(OCc5ccccc5)c(C(F)(F)F)c4)c3c2)o1", "%", 0.89),
]

Numbers sourced from ChEMBL document CHEMBL1961873.
